Tgt: pertussis toxin (Bordetella pertussis)
Assay Info: NADase activity in the presence of sulfhydryl reducing agents (Example Five)
Type: biochemical
Assay Context: in the presence of ATP and CHAPS; read-out: activation constant

# Molecule, Display Unit, EC50
measured = [
    ("N[C@@H](CCC(=O)N[C@@H](CS)C(=O)NCC(=O)O)C(=O)O [glutathione]", "µM", 2000),
]

---

Fractional Activation reference
Tgt: UniProt P04977
Assay Info: Screen of compounds at 1 mM for stimulation of the NADase activity of the toxin (Example Three)
Type: biochemical
Assay Context: compound 1 mM; relative to 1 mM ATP; toxin preincubated with 20 mM DTT and 2% CHAPS; 3 h at 37° C; average ± half range of two trials
Endpoint: Fractional Activation

# Molecule, Tgt, Endpoint, Observed Measurement
records = [
    ("O=P(O)(O)OP(=O)(O)O [pyro-P, pyrophosphate]", "UniProt P04977", "Fractional Activation", "0.85 ± .11"),
    ("O=P(O)(O)OP(=O)(O)OP(=O)(O)OP(=O)(O)O [tetrapoly-P, tetrapolyphosphate]", "UniProt P04977", "Fractional Activation", "0.92 ± .12"),
    ("O=P(O)(O)OP(=O)(O)OP(=O)(O)O [tripoly-P, tripolyphosphate]", "UniProt P04977", "Fractional Activation", "0.98 ± .14"),
    ("O=P1([O-])OP(=O)([O-])OP(=O)([O-])O1.[Na+].[Na+].[Na+] [trimeta-P, trimetaphosphate]", "UniProt P04977", "Fractional Activation", "0.69 ± .22"),
    ("O=P(O)(O)O [P, phosphate]", "UniProt P04977", "Fractional Activation", "0.01 ± .01"),
]

---

Tgt: pertussis toxin (Bordetella pertussis)
Assay Info: Activation constants (A0.5) of polyphosphates by NADase assay
Format: biochemical
Assay Context: in the presence of a mild detergent; FIGS. 1A and 1B; read-out: activation constants (A0.5)
Protocol: In the description herein, activation constants for the substances may be expressed by a numerical value (A0.5) by using an NADase assay. The pertussis toxin in the Examples comprised 50 μg of the toxin in a 500 μl solution of 10 mM sodium phosphate-50 mM sodium chloride-water solution having a pH of 7. The enzymatic activity was detected as the hydrolysis of nicotinamide labelled NAD and ion-exchange column chromatography to resolve the product from the substrate. […]
pEC50: −log10 of the molar value.
pEC50 reference

# Compound, Comparison Operator, pEC50
measured = [
    ("Nc1ncnc2c1ncn2[C@@H]1O[C@H](COP(=O)(O)OP(=O)(O)OP(=O)(O)O)[C@@H](O)[C@H]1O", "=", 6.70),
    ("Nc1nc2c(ncn2[C@@H]2O[C@H](COP(=O)(O)OP(=O)(O)OP(=O)(O)O)[C@@H](O)[C@H]2O)c(=O)[nH]1", "=", 4.46),
    ("Nc1ncnc2c1ncn2[C@@H]1O[C@H](COP(=O)(O)OP(=O)(O)O)[C@@H](O)[C@H]1O", "=", 5.22),
    ("O=P(O)(O)OP(=O)(O)OP(=O)(O)OP(=O)(O)O [tetrapoly-P, tetrapolyphosphate]", "≤", 3.77),
]

---

Tgt: pertussis toxin (Bordetella pertussis, UniProt P04977)
Sequence (P04977 35-269 limits assumed): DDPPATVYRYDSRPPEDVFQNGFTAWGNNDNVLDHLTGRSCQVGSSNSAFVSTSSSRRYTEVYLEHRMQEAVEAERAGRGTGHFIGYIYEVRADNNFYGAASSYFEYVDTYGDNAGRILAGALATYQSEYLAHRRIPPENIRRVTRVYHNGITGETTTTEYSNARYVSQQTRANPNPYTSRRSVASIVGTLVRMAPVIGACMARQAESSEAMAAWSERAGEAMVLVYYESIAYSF
Assay Info: Activation constants (A0.5) of polyphosphates by NADase assay
Type: biochemical
Assay Context: in the presence of a mild detergent; FIGS. 1A and 1B

# Compound, Tgt, fraction of the ATP effect
measured = [
    ("O=P(O)(O)OP(=O)(O)O [pyro-P, pyrophosphate]", "pertussis toxin (Bordetella pertussis, UniProt P04977)", 0.7),
    ("O=P(O)(O)OP(=O)(O)OP(=O)(O)O [tripoly-P, tripolyphosphate]", "pertussis toxin (Bordetella pertussis, UniProt P04977)", 0.6),
    ("O=P1([O-])OP(=O)([O-])OP(=O)([O-])O1.[Na+].[Na+].[Na+] [trimeta-P, trimetaphosphate]", "pertussis toxin (Bordetella pertussis, UniProt P04977)", 0.3),
]

Where these numbers come from: patent US5032398A
